Where do these numbers come from? They come from the Kinase Knowledgebase extract (Sharma et al. 2016).

Each entry below carries its recorded pIC50.
Target: PIK3CD (Human) (UniProt O00329)
Sequence (O00329 whole entry, looked up): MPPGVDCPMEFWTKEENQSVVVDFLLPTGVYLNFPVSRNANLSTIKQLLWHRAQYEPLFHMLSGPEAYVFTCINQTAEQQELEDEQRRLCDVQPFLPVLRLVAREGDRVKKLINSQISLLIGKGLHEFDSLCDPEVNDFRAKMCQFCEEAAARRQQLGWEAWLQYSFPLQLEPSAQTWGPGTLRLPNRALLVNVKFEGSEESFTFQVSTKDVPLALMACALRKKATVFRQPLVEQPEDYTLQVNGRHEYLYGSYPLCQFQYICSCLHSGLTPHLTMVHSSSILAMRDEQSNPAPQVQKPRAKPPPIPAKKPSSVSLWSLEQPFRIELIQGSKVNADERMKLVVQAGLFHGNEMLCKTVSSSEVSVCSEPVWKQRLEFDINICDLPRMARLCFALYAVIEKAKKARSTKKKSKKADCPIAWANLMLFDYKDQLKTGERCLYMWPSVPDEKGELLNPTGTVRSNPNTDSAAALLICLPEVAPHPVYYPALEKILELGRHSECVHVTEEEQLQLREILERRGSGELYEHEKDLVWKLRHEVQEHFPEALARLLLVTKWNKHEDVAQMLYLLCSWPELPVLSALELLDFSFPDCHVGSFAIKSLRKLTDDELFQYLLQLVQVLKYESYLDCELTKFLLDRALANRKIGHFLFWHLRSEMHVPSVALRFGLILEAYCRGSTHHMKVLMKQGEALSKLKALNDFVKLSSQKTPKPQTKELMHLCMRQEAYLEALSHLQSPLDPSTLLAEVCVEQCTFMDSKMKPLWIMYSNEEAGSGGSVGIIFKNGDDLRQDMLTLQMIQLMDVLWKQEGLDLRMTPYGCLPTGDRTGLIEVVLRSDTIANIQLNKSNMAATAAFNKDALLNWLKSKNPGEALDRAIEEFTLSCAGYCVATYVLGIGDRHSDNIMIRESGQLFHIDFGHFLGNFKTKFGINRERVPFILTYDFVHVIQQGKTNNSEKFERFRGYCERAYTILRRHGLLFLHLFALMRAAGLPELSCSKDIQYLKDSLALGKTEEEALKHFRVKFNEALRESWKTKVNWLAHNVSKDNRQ
Experiment: Assessment of PIK3CD Kinase Activity
pIC50: −log10 of the molar value.

1) COc1cccc2c1nc(C(F)F)n2-c1nc(N2CCOCC2)nc(N(CCCN(C)C)C2CCN(S(=O)(=O)CCl)CC2)n1	> 7.00
2) COc1cc(N)cc2c1nc(C(F)F)n2-c1nc(N2CCOCC2)nc(N2CCN(S(=O)(=O)CCN(C)C)CC2)n1	> 7.00
3) COc1cccc2c1nc(C(F)F)n2-c1nc(N2CCOCC2)nc(N2CCC[C@H](N(CCCN(C)C)S(C)(=O)=O)C2)n1	6.00 to 7.00
4) COc1cccc2c1nc(C(F)F)n2-c1nc(OC2CCN(S(=O)(=O)CCN3CCOCC3)CC2)nc(N2CCOCC2)n1	> 7.00

Entry CN(C)CCCOc1cccc2c1nc(C(F)F)n2-c1nc(OC2CCN(S(C)(=O)=O)CC2)nc(N2CCOCC2)n1 , pIC50 reported as 6.00 to 7.00

Entry CN(C)CCS(=O)(=O)N1CCN(c2nc(N3CCOCC3)nc(-n3c(C(F)F)nc4ccccc43)n2)CC1 , pIC50 reported as 6.00 to 7.00

Entry COc1cccc2c1nc(C(F)F)n2-c1nc(N2CCOCC2)c2cnn(C3CCN(S(=O)(=O)CCN(C)C)CC3)c2n1 , pIC50 reported as 6.00 to 7.00

Entry COc1cccc2c1nc(C(F)F)n2-c1nc(-c2ccc(N(C)S(=O)(=O)CCN(C)C)cc2)nc(N2CCOCC2)n1 , pIC50 reported as 6.00 to 7.00
